Protocol details: Liver microsomal metabolism, rat
Format: in vitro ADME
Design: dose or concentration left out as unconfirmed
Test settings: liver microsomes, pH 7.4; rat; hepatic intrinsic clearance scaled from microsomes
Quantity kind: CLint scaled (mL/min/kg)
Numbers only here, please. The scale is mL/min/kg.

Req: Return reported CLint scaled. Input compound: Cc1cccc(-c2nnc3c4ccccc4nc(N4CCN(C(=O)Cc5ccccc5)CC4)n23)c1 [triazoloquinoline derivative]
Resp: 59.4

* * *

Protocol details: Liver microsomal metabolism, mouse
Format: in vitro ADME
Parameters: dose or concentration left out as unconfirmed
Test settings: pH 7.4; mouse liver microsomes
Quantity kind: half-life (min)
Numbers only here, please. The scale is min.

Req: Return reported half-life. Input molecule: `Cc1cccc(-c2nnc3c4ccccc4nc(N4CCN(C(=O)Cc5ccccc5)CC4)n23)c1`
Resp: 16
